# System: SNB-75 CNS
# Assay Comment: NCI tumour cell line growth inhibition, 48 h
Measured Attribute: TGI (µM)
Quick note: give the figure in µM, leave out the unit.

// solved cases for TGI follow
>  <Compound>
CCc1ncnc2cc(OCC3CO3)c(OC)cc12 (stereo unspecified)

>  <TGI [µM]>
53.7

$$$$
>  <Compound>
COc1ccc(C(=O)OC2C(OC3C(O)COC(O[C@H]4C[C@H]5[C@@H]6CC=C7C[C@@H](O)CC[C@]7(C)[C@H]6CC[C@]5(C)[C@H]4[C@H](C)C(=O)CCC(C)C)C3OC(C)=O)OCC(O)C2O)cc1 (stereo partly specified)

>  <TGI [µM]>
4.36

$$$$
>  <Compound>
O=[N+]([O-])c1ccc(COc2cccc3cccnc23)cc1

>  <TGI [µM]>
78.3

$$$$
>  <Compound>
CCCCS(=O)CC(CO)NC(=O)/C=C/c1c(C)[nH]c(=O)[nH]c1=O (stereo unspecified)

>  <TGI [µM]>
30

$$$$

Query block: Requested field: TGI. Item: N#CCCN(CCC#N)c1ccc(C(N=Nc2ccc(Cl)cc2)=Nc2ccc(Cl)cc2)cc1
Result block: 45.6

Query block: # input compound: O=C1CSC(C(N=Nc2ccc(Cl)cc2)c2nc3ccccc3[nH]2)=N1 (stereo unspecified) ; wanted: its TGI
Result block: 90.2

----------
Below: a set of entries, each annotated with reported TGI.
# System: RPMI-8226 leukemia
# Assay Comment: NCI tumour cell line growth inhibition, 48 h

Some solved cases for reference:
>  <Compound>
COc1ccc(C(=O)OC2C(OC3C(O)COC(O[C@H]4C[C@H]5[C@@H]6CC=C7C[C@@H](O)CC[C@]7(C)[C@H]6CC[C@]5(C)[C@H]4[C@H](C)C(=O)CCC(C)C)C3OC(C)=O)OCC(O)C2O)cc1 (some centres undefined)

>  <TGI>
< 0.003 µM

$$$$
>  <Compound>
Nc1c2c(nc3ccccc13)CCCc1ccccc1-2

>  <TGI>
30.4 µM

$$$$
>  <Compound>
O=C1CCCC2=C1CC1=C(CCCC1=O)N2c1cccc([N+](=O)[O-])c1

>  <TGI>
> 100 µM

$$$$

Query block: Looking for the measured TGI of COC(=O)/C(=C\c1c(-c2ccccc2)[nH]c2ccccc12)S(C)(=O)=O , can you help?
Result block: 96.4 µM

Query block: Which TGI value is on record for CC(=O)/C(=C\c1c(-c2ccccc2)[nH]c2ccccc12)S(=O)(=O)c1ccccc1 ?
Result block: 7.14 µM

Query block: Can you look up the measured TGI of Oc1ccccc1-c1nn2c(CCCCCCCCc3nnc4sc(-c5ccccc5O)nn34)nnc2s1 for me?
Result block: > 100 µM

----------
# Test system: CCRF-CEM leukemia
# Assay Comment: NCI tumour cell line growth inhibition, 48 h; in the data active = GI50 below about 0.43 µM; inactive = the rest
Allowed answers: 1 for active, 0 for inactive

Worked cases, answers included:
>  <Molecule>
CC/C=C\C[C@H](O)C/C=C1/C(=O)C=C[C@@H]1C/C=C\CCCC(=O)NC

>  <Test System>
CCRF-CEM leukemia

>  <Group>
0

$$$$
>  <Molecule>
CNCCCn1c2c(c3ccc(F)cc3c1=O)C(=O)c1cc(OC)cnc1-2

>  <Test System>
CCRF-CEM leukemia

>  <Group>
1

$$$$

Query block: Answer briefly: the call reported for C[C@@](O)(/C=C/[C@H]1CC=CC(=O)O1)[C@@H](C[C@@H](O)\C=C/C=C\C=C\CO)OP(=O)(O)O in this assay.
Result block: 0
